target: mGluR5 (Homo sapiens); construct: expressed in transfected cells; assay: inhibition of the glutamate (agonist) induced elevation of the inositol phosphate turnover; format: cell-based; conditions: inhibition of glutamate induced elevation of inositol phosphate turnover at 0.1 μM
Sequence (P41594 21-1180 isoform P41594-2 limits assumed): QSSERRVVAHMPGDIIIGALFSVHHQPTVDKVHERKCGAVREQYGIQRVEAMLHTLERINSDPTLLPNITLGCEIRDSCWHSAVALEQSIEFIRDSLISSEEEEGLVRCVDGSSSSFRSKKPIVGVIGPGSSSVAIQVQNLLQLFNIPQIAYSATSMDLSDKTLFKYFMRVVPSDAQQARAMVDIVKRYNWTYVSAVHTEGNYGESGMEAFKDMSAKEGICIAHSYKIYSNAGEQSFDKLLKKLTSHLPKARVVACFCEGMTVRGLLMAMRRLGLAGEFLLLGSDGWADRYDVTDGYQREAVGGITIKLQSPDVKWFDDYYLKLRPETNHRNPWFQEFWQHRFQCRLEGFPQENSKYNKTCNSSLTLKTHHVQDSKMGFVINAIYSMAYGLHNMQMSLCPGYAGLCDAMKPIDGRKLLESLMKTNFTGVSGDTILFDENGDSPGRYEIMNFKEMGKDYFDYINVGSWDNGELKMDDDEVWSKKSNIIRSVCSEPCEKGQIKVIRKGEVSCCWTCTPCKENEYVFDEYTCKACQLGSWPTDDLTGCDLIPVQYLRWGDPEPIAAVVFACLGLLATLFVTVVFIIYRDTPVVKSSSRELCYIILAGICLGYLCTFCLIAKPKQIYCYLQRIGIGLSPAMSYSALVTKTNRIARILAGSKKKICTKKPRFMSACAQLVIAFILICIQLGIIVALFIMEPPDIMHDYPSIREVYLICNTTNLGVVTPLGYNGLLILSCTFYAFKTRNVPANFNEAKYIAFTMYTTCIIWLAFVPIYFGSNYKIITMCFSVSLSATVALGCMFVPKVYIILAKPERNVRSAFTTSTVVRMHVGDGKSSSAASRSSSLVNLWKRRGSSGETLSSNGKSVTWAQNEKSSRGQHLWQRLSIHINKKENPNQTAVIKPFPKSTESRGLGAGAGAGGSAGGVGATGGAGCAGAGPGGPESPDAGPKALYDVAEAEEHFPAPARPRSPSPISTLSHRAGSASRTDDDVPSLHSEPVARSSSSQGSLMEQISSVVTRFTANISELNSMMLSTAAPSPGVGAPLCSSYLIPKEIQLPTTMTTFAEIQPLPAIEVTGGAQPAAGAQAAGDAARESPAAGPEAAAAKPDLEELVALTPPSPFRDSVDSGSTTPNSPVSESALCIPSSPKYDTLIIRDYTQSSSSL
For each of the compounds below, state its inhibition at 0.1 µM.
Just the number plus its unit, please.

Need inhibition at 0.1 µM, item `CCCn1c(-c2ccc(Nc3ccc(C)cc3)cc2)nc2cccc(Cl)c21`
90%

What inhibition at 0.1 µM value was documented for this compound, `Cc1ccc(Nc2ncc(-c3nc4ccccc4n3CC(C)C)cc2Cl)cn1` ?
98%

So what's the measured inhibition at 0.1 µM for this one? `CCCn1c(-c2cnc(Nc3ccc4nccnc4c3)c(Cl)c2)nc2cccc(Cl)c21`
96%

For `Cc1ccc(Nc2ccc(-c3nc4cccc(Cl)c4n3CC(C)C)cc2Cl)cn1` , what is its reported inhibition at 0.1 µM?
100%

May I ask what inhibition at 0.1 µM has been recorded for `CCCn1c(-c2cnc(Nc3cnc(C)cn3)c(Cl)c2)nc2cccc(Cl)c21` ?
99%
